- experiment.description: Ocular tissue distribution of ketorolac after intracameral OMS302 during IOL replacement in dogs
- Format: in vivo, female beagles
- settings: female, beagle, dog, plasma, 5.71 mg/eye; t=0; read-out: mean plasma level of ketorolac
property.label: concentration at 0 h
Write your answer as a measured quantity: the number, then the unit.

Per the record, O=C(c1ccccc1)c1ccc2n1CCC2C(=O)O (racemic) [ketorolac] has concentration at 0 h of 4.73 ng/mL

* * *

- experiment.description: Ocular tissue distribution of ketorolac after intracameral OMS302 during IOL replacement in dogs
- Type: in vivo, female beagles
- settings: female, beagle, dog, retina, 5.71 mg/eye; immediately following the end of IOL replacement (t=0); intracameral OMS302 in BSS; read-out: Ketorolac concentration in the retina
property.label: concentration at 0 h (ng/g)
State just the number; it will be interpreted in ng/g.

Please fill in: concentration at 0 h reported for O=C(c1ccccc1)c1ccc2n1CCC2C(=O)O (racemic) = 1400
